Assignment: determine reported MLD for the given compounds.
# Tested on: Mus musculus
# experiment: Acute lethal toxicity in mice on peroral administration.
# Type: organism-based
# applied.conditions: in vivo, po
Write the value in mg/kg as a bare number.

Prompt: Enter reported MLD observed with Mus musculus for `CC(C)Cn1cnc2c3cccnc3n(-c3ccccc3)c(=O)c21`
Response: 300

Prompt: Then this compound: `CCCn1cnc2c3cccnc3n(-c3ccccc3)c(=O)c21`
Response: 200

Prompt: What about this compound? `CCCCn1c(=O)c2ncn(C)c2c2cccnc21`
Response: 300

Prompt: Query `Cn1cnc2c3cccnc3n(-c3ccccc3)c(=O)c21` next
Response: 100

Prompt: Entry `CCn1cnc2c3cccnc3n(-c3ccccc3)c(=O)c21` please
Response: 100

Prompt: Also, `CCCCn1c(=O)c2c(ncn2C)c2cccnc21` please.
Response: 200

Prompt: Again, but for `CC(C)n1cnc2c3cccnc3n(-c3ccccc3)c(=O)c21`
Response: 200
